assay: Confirmatory screen GU Rhodamine qHTS for Zika virus inhibitors qHTS (AID 1347157); details: purified enzyme assay, Rhodamine110 substrate fluorescence, 15 min; series mostly up to 114 µM; further: nearly all actives have a fitted effect of over 70% in size
Records with an inconclusive call do not appear. Calls of active or inactive are those of the source. The call rests on the fitted dose curve; in most records, active means well fitted inhibition curve with a large enough effect; inconclusive means small, poorly fitted or top-dose-only effect; inactive means flat fitted curve, though single readings scatter.
Form entry, call: pick from active, inactive

Enquiry: Kindly provide the recorded test outcome for the following compound: CCCCc1nn2c(=O)cc(COC(=O)c3cccc(NC(=O)c4cccc(Cl)c4)c3)nc2s1
Return: inactive

Enquiry: Write down the call the test reported for this compound. Item: COc1ccc(S(=O)(=O)c2c(O)c(C)cc(NS(=O)(=O)c3ccc(Cl)cc3)c2C(C)C)cc1
Return: inactive

Enquiry: What classification did O=C(Nc1ccc(C(=O)OCc2cc(=O)n3c4c(sc3n2)CCCC4)cc1)c1cccc(F)c1 end up with in this test?
Return: inactive

Enquiry: Test call for this compound, please: COc1ccc2c(c1)Oc1nc(-c3ccc(C)s3)nc(SCC(=O)Nc3cccc(C(=O)O)c3)c1C2
Return: active

Enquiry: Which result was noted for this compound in the test: O=C(OCC#CCSc1nnc(-c2cccc3ccccc23)o1)c1ccc(Cl)c(C(F)(F)F)c1
Return: active

Enquiry: Outcome? CC(=O)Nc1ccc(S(=O)(=O)O)c2cc(S(=O)(=O)O)c(N=Nc3ccc(N=Nc4ccc(S(=O)(=O)O)cc4)c4ccc(S(=O)(=O)O)cc34)c(O)c12
Return: active

Enquiry: What classification did O=C(OCC#CCSc1nnc(-c2cccc3ccccc23)o1)c1ccc(SC(F)(F)F)cc1 end up with in this test?
Return: inactive

Enquiry: // outcome(item) with item = CCCCc1nn2c(=O)cc(COC(=O)c3ccc(NC(=O)c4cccs4)cc3)nc2s1
Return: inactive

Enquiry: In this assay, the call recorded for O=C(CSc1nnc(-c2cccc([S+](=O)([O-])NC3CCCC3)c2)n1-c1ccccc1)Nc1ccc(C(=O)O)cc1 was what?
Return: inactive

Enquiry: Which result was noted for this compound in the test: O=C(OCC#CCSc1nnc(-c2cccc3ccccc23)o1)c1ccc(F)c(F)c1
Return: inactive

Enquiry: In this assay, the call recorded for O=C(Nc1cccc(C(=O)OCc2cc(=O)n3nc(C4CC4)sc3n2)c1)c1cccc(Cl)c1 was what?
Return: active

Enquiry: Query: recorded result category for Cc1ccc(C(=O)Nc2ccc(C(=O)OCc3cc(=O)n4nc(C5CC5)sc4n3)cc2)cc1 in this test
Return: inactive

Enquiry: For this compound, state the assay outcome: O=C1OCC2=C1C(c1cccc(Cl)c1)CC(=O)N2c1ccc(C(F)(F)F)cc1 (stereo not drawn)
Return: inactive

Enquiry: What classification did CC(C)c1nn2c(=O)cc(COC(=O)c3ccc(NC(=O)COc4ccccc4)cc3)nc2s1 end up with in this test?
Return: inactive

Enquiry: Which outcome was entered for the compound Nc1c(S(=O)(=O)O)cc(Nc2ccc(Nc3nc(Cl)nc(Nc4ccc(S(=O)(=O)O)cc4)n3)c(S(=O)(=O)O)c2)c2c1C(=O)c1ccccc1C2=O in this test?
Return: active

Enquiry: Can you look up the reported call for O=S(=O)(Nc1ccc(Cl)cc1)c1ccc(NS(=O)(=O)c2ccc3c(c2)OCCO3)cc1 for me?
Return: active

Enquiry: Hi team, can someone confirm the assay call for O=C(OC1Cc2c(O)cc(O)cc2OC1c1cc(O)c(O)c(O)c1)c1cc(O)c(O)c(O)c1 (stereo not drawn) ?
Return: active

Enquiry: Field: outcome | Entry: CCN(Cc1cccc(S(=O)(=O)O)c1)c1ccc(C(=C2C=CC(=[N+](CC)Cc3cccc(S(=O)(=O)O)c3)C=C2)c2ccc(O)cc2S(=O)(=O)O)cc1
Return: active
